# ASSAY SYSTEM: T1, CD71 apical domain (UniProt P02786 189-383, limits assumed)
# T1 construct: domain: Apical domain
# T1 sequence (P02786 189-383 limits assumed): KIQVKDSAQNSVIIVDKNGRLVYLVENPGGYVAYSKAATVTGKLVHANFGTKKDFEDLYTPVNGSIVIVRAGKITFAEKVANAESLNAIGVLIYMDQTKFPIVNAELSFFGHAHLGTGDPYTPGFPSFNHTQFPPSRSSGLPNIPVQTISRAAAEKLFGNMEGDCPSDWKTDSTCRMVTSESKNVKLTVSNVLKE
# PROTOCOL NOTES: solution ELISA, signal ratio to HSA
// reported apical domain:HSA per item

SEQ ID NO 123 (designed binder, FN3 domain) MLPAPKNLVVSRVTEDSARLSWTAPDAAFDSFFIGYLEPQPPGEAIQLWVPGSERSYDLTGLKPGTEYNVTIQGVKGGFPSHPLGAVFTT | 163
SEQ ID NO 126 (designed binder, FN3 domain) MLPAPKNLVVSRVTEDSARLSWTAPDAAFDSFFIGYLEPQPPGEAIHLHVPGSERSYDLTGLKPGTEYNVTIQGVKGGFPSIPLHANFTT | 137

With those in mind, consider the next binder.
Sample SEQ ID NO 103 (designed binder, FN3 domain) MLPAPKNLVVSRVTEDSARLSWTAPDAAFDSFHIVYHEPRPSGEAIWLHVPGSERSYDLTGLKPGTEYEVGIVSVKGGDLSVPLVAFFTT — what was its apical domain:HSA?
143

Source listed as patent US20220332795A1.
